# Target under test: HLA A2 on RMA-S/A2 cells (human)
# Experiment description: RMA-S/A2 HLA A2 stabilisation, BB7.2 FACS; 100 µM peptide; ΔMean minus highest HepB ΔMean
Reported property: High - B

Binder	Assay value
ALMLLNNYV (modifications not checked) [CH20]	138
TLWGSFVDV (modifications not checked) [CH21]	121
ALWGHNVLL (modifications not checked) [CH55]	98
ALWKENQAL (modifications not checked) [CH54]	91
NLSRQAFFA (modifications not checked) [CH51]	19

a. VQLAYVFDV (modifications not checked) [CH16]
b. YLTSYSPYV (modifications not checked) [CH15]
Prompt: Which entry shows the lesser value of High - B here, a or b ? Answer by quoting the chosen item's label.
Response: a

P. KLLKDHFDL (modifications not checked) [CH34]
Q. NLWSHYTDL (modifications not checked) [CH53]
Prompt: I'd appreciate it if you could identify which of P and Q has the greater High - B. Answer by quoting the chosen item's label.
Response: P
(P: 81, Q: 48)

a. NLAGGILSV (modifications not checked) [CH56]
b. LLLTLGYAV (modifications not checked) [CH19]
Prompt: Which entry shows the lesser value of High - B here, a or b ? Answer by quoting the chosen item's label.
Response: b
(b: 0, a: 80)
